# TARGET_OF_ASSAY: Mas-related G-protein coupled receptor member X1 (Homo sapiens)
# PROTOCOL_DESCRIPTION: activators of human MrgX1 calcium signaling – HEK293 cells, Fluo-4 calcium flux, confirmation (AID 602412)
# RUN_PARAMETERS: MrgX1-HEK293, Fluo-4 calcium fluorescence, FDSS, at 10 µM; stronger effect = higher value
The other results are listed elsewhere or left out. Calls of active or inactive are those of the source.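 The calls were made as follows: active = calcium signal rise, corrected for plate position, at least 3 library SD high, with starting brightness within 5 such deviations; inactive = the rest.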
QUANTITY_MEASURED: activation

Cc1ccc(NC2(C#N)C(=O)Nc3ccccc32)cc1 (stereo unspecified) : 191% (active)
O=C(Nc1nnc(-c2ccccc2)o1)c1cc(-c2cccs2)nc2ccccc12 : 141% (active)
CCN(CC)c1ccc2oc(=O)c(C)nc2c1 : inactive
O=C1Cc2ccccc2Sc2ccc(Cl)cc21 : 104% (active)
O=C(CCN1CCc2ccccc2C(O)(c2ccccc2)C1)c1ccc2c(c1)OCCO2 (stereo unspecified) : 192% (active)

API: the following record is the query input.
Ask | # lookup: activation of COC(=O)c1ccc(COC(=O)C2CCN(S(=O)(=O)c3c(Cl)cccc3Cl)CC2)o1
Reply | inactive

* * *

# TARGET_OF_ASSAY: Mas-related G-protein coupled receptor member X1 (Homo sapiens) (UniProt Q96LB2)
# Sequence (Q96LB2 whole entry, looked up): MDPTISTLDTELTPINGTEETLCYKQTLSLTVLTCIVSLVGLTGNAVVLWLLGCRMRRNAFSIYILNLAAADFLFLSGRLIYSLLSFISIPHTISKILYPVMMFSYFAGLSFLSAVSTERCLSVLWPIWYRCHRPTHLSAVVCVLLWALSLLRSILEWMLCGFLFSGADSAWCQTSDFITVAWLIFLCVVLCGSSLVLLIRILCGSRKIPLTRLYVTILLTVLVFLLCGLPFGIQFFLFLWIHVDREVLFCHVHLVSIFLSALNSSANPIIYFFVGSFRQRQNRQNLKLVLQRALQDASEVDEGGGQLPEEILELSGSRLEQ
# PROTOCOL_DESCRIPTION: activators of human MrgX1 calcium signaling – HEK293 cells, Fluo-4 calcium flux, confirmation (AID 602412)
# RUN_PARAMETERS: MrgX1-HEK293, Fluo-4 calcium fluorescence, FDSS, at 10 µM
The list shows a part of the results. The source made the active and inactive calls.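 The calls were made as follows: active = calcium signal rise, corrected for plate position, at least 3 library SD high, with starting brightness within 5 such deviations; inactive = the rest.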
Your answer must be one of the following: Y (active), N (inactive)

Sample answers from the record:
Cc1onc(-c2ccccc2)c1C(=O)NNC(=S)NC(=O)c1ccc(F)cc1 : Y
CC(C)CC(=O)NC(=S)NNC(=O)c1cccc([N+](=O)[O-])c1 : Y
COc1ccc(C(=O)NC(=S)NNC(=O)CCc2ccccc2)cc1 : Y
CC(Oc1ccc2ccccc2c1)C(=O)NNC(=S)NC(=O)c1ccco1 (stereo unspecified) : Y

Ask | Write down the call the test reported for this compound. Item: CCCCC(=O)NNC(=S)NC(=O)C(c1ccccc1)c1ccccc1
Reply | N

Ask | Write down the call the test reported for this compound. Item: CCCc1nc2c(c(=O)c3ccccc3n2C)c(=O)n1C1CCCCCC1
Reply | Y

Ask | Write down the call the test reported for this compound. Item: Cc1ccc(-n2[nH]c(C)c(/C=N/N3C(=O)c4cccc5cccc(c45)C3=O)c2=O)cc1
Reply | Y

* * *

# TARGET_OF_ASSAY: Mas-related G-protein coupled receptor member X1 (Homo sapiens) (UniProt Q96LB2)
# PROTOCOL_DESCRIPTION: activators of human MrgX1 calcium signaling – HEK293 cells, Fluo-4 calcium flux, confirmation (AID 602412)
# RUN_PARAMETERS: MrgX1-HEK293, Fluo-4 calcium fluorescence, FDSS, at 10 µM
This is one part of the list. Active and inactive are the calls of the source.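 Rule for the calls: active = calcium signal rise, corrected for plate position, at least 3 library SD high, with starting brightness within 5 such deviations; inactive = the rest.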
Your answer must be one of the following: 1 (yes) (active), 0 (no) (inactive)

Sample answers from the record:
CC1(C(=O)O)CCC(C(=O)Nc2ccc(Cl)c(Cl)c2)C1(C)C (centres undefined) : 1 (yes)
Fc1ccc2[nH]c3c(N4CCSCC4)ncnc3c2c1 : 1 (yes)
COc1ccc(OC)c(C(=O)c2ccc(Cl)cc2)c1 : 0 (no)

Moving on to the next compound.
Ask | Write down the call the test reported for this compound. Item: CCCc1cc(=S)n2c([nH]c3ccccc32)c1C#N
Reply | 1 (yes)
